tested on: Plasmodium berghei; experiment: Screen against P. berghei liver stage (PbLuc), transformed with Luciferase, at 10uM; assay type: functional, HepG2; conditions: tested at 10 uM
In all, about 69,000 compounds went through this assay and about 8,600 (12%) showed an effect of 50% or more. For the sample, strong results were picked, then their nearest neighbours and some compounds at random.
Give measured INHIBITION for each item. Keep answers brief.
Numbers only, in %.

Past entries and their recorded results:
>>> readout_value("COc1cccc2cc(CNC(=O)N3CCS(=O)(=O)CC3)oc12")
23.5
>>> readout_value("c1cncc(-c2noc(CN3CCCC(Cn4cncn4)C3)n2)c1 (stereo unspecified)")
-52.5

I need INHIBITION for every entry listed below, if you could help.
1. CCCN1CCCCC1C(=O)Nc1ccc(-c2nnc[nH]2)cc1 (stereo unspecified)
2. O=C(NCCn1ccc(-c2ccccn2)n1)C1CC1

1: -28.6; 2: -30

I need INHIBITION for every entry listed below, if you could help.
1. O=C(CCCN1CCCCC1)NC(C(=O)O)c1ccc(Cl)cc1 (stereo unspecified)
2. Cc1ccc(C(=O)N(C)Cc2ccc3c(c2)OCCO3)c(=O)[nH]1
3. NCCC(=O)NCC1(O)CCCN(c2ccnc3cccnc23)C1 (stereo unspecified)
4. O=C(NCCn1ccc(-c2ccccn2)n1)c1ccncc1
5. CCC(=O)N1CCC2(CCN(Cc3cccc(F)c3)CC2)CC1
6. Cc1cccnc1NC(=O)C1CCCN1Cc1ccccc1 (stereo unspecified)
7. CC(C)(C)CN(CCC#N)Cn1cc(Cl)cn1
8. Cc1nccn1-c1ccc(NC(=O)C2CCCN2Cc2c[nH]cn2)cc1 (stereo unspecified)

6.11
-11.6
29.4
31.2
-6.97
-10.4
40.7
36.2

I need INHIBITION for every entry listed below, if you could help.
1. Cc1nnsc1C(=O)NCCn1ccc(-c2ccncc2)n1
2. CC(C)N(CCO)C(=O)c1cc(COc2ccc3c(c2)CCCC3)on1
3. O=C(CC1CCCC1)NCCn1ccc(-c2ccncc2)n1
4. CS(=O)(=O)c1cccc(C(=O)N2CCCC(n3cccn3)C2)c1 (stereo unspecified)

1. 61.5
2. -15.6
3. 36.3
4. 1.94

====

tested on: Plasmodium berghei; experiment: Screen against P. berghei liver stage (PbLuc), transformed with Luciferase, at 10uM; assay type: functional, HepG2; conditions: tested at 10 uM
In all, about 69,000 compounds went through this assay and about 8,600 (12%) showed an effect of 50% or more. This is one part of a sample in which strong results are shown more often than they occur.
Give measured INHIBITION for each item. Keep answers brief.
One number for each entry, in %.

Past entries and their recorded results:
>>> readout_value("COc1cc(N2C[C@@H]3COC[C@]3(COCc3ccncc3)C2)ncn1")
34.6
>>> readout_value("c1cnc(-c2nn3c(CN4CCCCC4)nnc3s2)cn1")
6.83
>>> readout_value("c1ccc(COC[C@]23COC[C@H]2CN(c2ncccn2)C3)nc1")
53

I need INHIBITION for every entry listed below, if you could help.
1. O=C(CCc1nc2cccnc2[nH]1)NCc1ccncc1
2. N#Cc1ccc(Cl)cc1NCC1CC1

1. -0.532
2. 47.7

====

Give measured INHIBITION for each item. Keep answers brief.
test system: Plasmodium berghei; assay: Screen against P. berghei liver stage (PbLuc), transformed with Luciferase, at 10uM; assay type: functional, HepG2; settings: tested at 10 uM
The whole screen tested about 69,000 compounds, of which about 8,600 (12%) showed an effect of 50% or more. This is one part of a sample in which strong results are shown more often than they occur.
Quote the value and follow it with the unit of measurement.

>>> readout_value("O=C(Nc1ccccc1F)C1CN(C(=O)c2ccc3c(c2)OCO3)C1")
"46.1%"
>>> readout_value("Cc1csc(N2CCN(CC(=O)Nc3cc(C)nn3C)CC2C)n1 (configuration not stated)")
"12.96%"
>>> readout_value("CC(C)n1cnnc1CN(C)C(=O)c1cnn2ccccc12")
"38.2%"
>>> readout_value("CC1CN(C(=O)CN(Cc2ccco2)Cc2cccs2)CCO1 (configuration not stated)")
"-19.9%"
>>> readout_value("CS(=O)(=O)NCC1(O)CCCN(C(=O)CCn2cc(Cl)cn2)CC1 (configuration not stated)")
"-28.7%"

I need INHIBITION for every entry listed below, if you could help.
1. c1nc2c(c(NC3CCc4ncnn4C3)n1)CCC2 (configuration not stated)
2. FC(F)(F)c1nc(NC2CCc3ncnn3C2)c2ccccc2n1 (configuration not stated)
3. Cc1cccc(C(=O)NC(C)CN2CCCC2=O)n1 (configuration not stated)
4. CCS(=O)(=O)N(C)CC(=O)Nc1ccc(Br)cn1
5. c1cc(-c2nc(CN3CCc4c(ncn4C4CC4)C3)cs2)cs1
6. COc1c(Br)c(CC2CC(CO)=NO2)c(OC)c2c1OCO2 (configuration not stated)
7. CCCC(C)CS(=O)(=O)NCc1cccnc1OC (configuration not stated)
8. c1ccc(CNC2CCc3ncnn3C2)nc1 (configuration not stated)

1. 76.7%
2. 2.25%
3. 4%
4. 6.81%
5. 22.6%
6. 22.6%
7. 1.94%
8. -0.847%

I need INHIBITION for every entry listed below, if you could help.
1. CCc1nnc2n1CCN(C(=O)c1ccc3c(c1)nnn3C)C2
2. C[C@H]1CN(c2ccccn2)C[C@@]12CCN(Cc1cccnc1)C2=O
3. O=C1CCCN1Cc1nnc(SCc2ccc3c(c2)CCC3)o1
4. CCC(CCO)NS(=O)(=O)c1ccc(Br)cn1 (configuration not stated)

1: -8.66%; 2: 48.4%; 3: 13.2%; 4: 65.4%

====

test system: Plasmodium berghei; assay: Screen against P. berghei liver stage (PbLuc), transformed with Luciferase, at 10uM; type: functional, HepG2; conditions: tested at 10 uM
Hit rate of the full screen: of about 69,000 compounds, about 8,600 (12%) showed an effect of 50% or more. The list comes from a sample in which strong results are over-represented; it also holds close analogues and randomly drawn compounds.
Outcome: 1.0 for INHIBITION of at least 30%; 0.0 for anything lower.

Reported INHIBITION reaches at least 30% for O=C(O)c1nnn(-c2ccccc2)c1-c1ccncc1 ?
1.0

Reported INHIBITION reaches at least 30% for CCOC(=O)c1cnn(C2CCN(C(=O)CC(C)(C)C)CC2)c1N ?
0.0

Reported INHIBITION reaches at least 30% for Cc1ncsc1CN(C)C(=O)CC1CCOc2ccccc21 (stereo not given) ?
0.0

Reported INHIBITION reaches at least 30% for CC(C)NC(=O)c1nnn(-c2cccc(F)c2)c1C1CC1 ?
0.0

Reported INHIBITION reaches at least 30% for Cc1ccc(NC(=O)C2CSCN2C(=O)c2cnccn2)cc1C (stereo not given) ?
0.0

Reported INHIBITION reaches at least 30% for Cc1ncsc1C(=O)N1CCN(Cc2ccccc2)CC1C (stereo not given) ?
0.0

Reported INHIBITION reaches at least 30% for c1cncc(C2COC3(CCN(Cc4cccs4)CC3)C2)c1 (stereo not given) ?
0.0

Reported INHIBITION reaches at least 30% for O=C(O)c1nnn(-c2cc(F)cc(F)c2)c1-c1ccncc1 ?
0.0

Reported INHIBITION reaches at least 30% for Cc1nn(C)cc1C1CC(=O)Nc2c1cnn2C(C)C (stereo not given) ?
1.0

Reported INHIBITION reaches at least 30% for Cc1nc(COC(=O)c2cccc3c2OCCO3)no1 ?
1.0

====

test system: Plasmodium berghei; assay: Screen against P. berghei liver stage (PbLuc), transformed with Luciferase, at 10uM; format: functional, HepG2; settings: tested at 10 uM
The campaign covered roughly 69,000 compounds. About 8,600 (12%) showed an effect of 50% or more. Only a selection was taken, and strong results are over-represented in it overall.
Give measured INHIBITION for each item. Keep answers brief.
Numbers only, in %.

>>> readout_value("Cc1nc2ccccn2c1CC(=O)N[C@@H]1CCC[C@@H](N2CCCC2)[C@@H]1O")
-29.8
>>> readout_value("CC(C)c1cc(O)nc(C2CCCN2C(=O)C2CC2)n1 (centres undefined)")
-9.32
>>> readout_value("CN(C)C[C@H]1CC[C@@H](Cc2ccc3c(cnn3C)c2)O1")
32.4

Would you kindly share the measured INHIBITION for COc1ccc(-c2cc(C3CCCNC3)ccn2)cc1 (centres undefined) ?
-3.02

====

test system: Plasmodium berghei; experiment: Screen against P. berghei liver stage (PbLuc), transformed with Luciferase, at 10uM; format: functional, HepG2; details: tested at 10 uM
Hit rate of the full screen: of about 69,000 compounds, about 8,600 (12%) showed an effect of 50% or more. The sample holds strong results, similar compounds and a random draw of the others, so the mix is not that of the screen.
Give measured INHIBITION for each item. Keep answers brief.
One number for each entry, in %.

Past entries and their recorded results:
>>> readout_value("Cc1cc(C)c2cc(CNCc3ccco3)c3nn(C)c(=O)n3c2c1")
60.4
>>> readout_value("Cc1ccn(CCC(=O)NCc2ccc(C)o2)n1")
27.5
>>> readout_value("Cc1cc(C)c(N(CC(O)CNCc2ccco2)S(C)(=O)=O)c(C)c1 (configuration not stated)")
9.96
>>> readout_value("Cn1nc2c(cc1=O)CN(Cc1nc3ccccc3c(=O)[nH]1)CC2")
9.04
>>> readout_value("Cc1nnc2n1CCN(CCOc1ccccc1C#N)C2")
58.5
>>> readout_value("Cc1cc(C(=O)NCc2ccco2)nn1C")
10.075

// below: INHIBITION requested for another compound
Would you kindly share the measured INHIBITION for Cc1ccoc1C(=O)NCC(c1ccccc1Cl)N1CCOCC1 (configuration not stated) ?
30.5
